Cited source: PubChem BioAssay (NCATS)

Assay: qHTS of pediatric cancer cell lines to identify multiple opportunities for drug repurposing: Confirmatory screen for SK-N-SH cells (AID 1347129);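 note: cells exposed to compound for 48 h before viability read; nearly all actives have a fitted effect of over 60% in size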; note: potency is the fitted concentration of half-maximal effect
Conditions: SK-N-SH neuroblastoma cell viability; series mostly up to 46.1 µM
Results filed as inconclusive are left out. Active and inactive are the calls of the source. Calls come from the whole dose curve; as a rule, active = well fitted cell-killing curve with a large enough effect; inconclusive = small, poorly fitted or top-dose-only effect; inactive = flat fitted curve, though single readings scatter. Non-standard residues stand in square brackets, D forms with d. Residues, ends and D or L forms follow the SMILES beside them. *: point of attachment. Sta = CC(C)C[C@H](N)[C@@H](O)CC(=O)O; Isovaleryl = CC(C)CC(=O)*

- Compound: "CN(C)c1ccc2nc3ccc(=[N+](C)C)cc-3sc2c1"
  Potency: "4.18 µM (active)"
- Compound: "CS(=O)(=O)OCCCCOS(C)(=O)=O"
  Potency: "inactive"
- Compound: "CC(C)CC(=O)N[C@H](C(=O)N[C@H](C(=O)N[C@@H](CC(C)C)[C@@H](O)CC(=O)N[C@@H](C)C(=O)N[C@@H](CC(C)C)[C@@H](O)CC(=O)O)C(C)C)C(C)C (Isovaleryl-VV[Sta]A[Sta]-OH)"
  Potency: "inactive"
- Compound: "O=C(CCc1ccc(O)cc1)c1c(O)cc(O)cc1O"
  Potency: "inactive"
- Compound: "Cc1cc(C2CCCCC2)n(O)c(=O)c1"
  Potency: "2.35 µM (active)"
- Compound: "Cc1c(C(=O)NN2CCCCC2)nn(-c2ccc(Cl)cc2Cl)c1-c1ccc(Cl)cc1"
  Potency: "inactive"
- Compound: "Nc1ccn([C@@H]2O[C@H](CO)[C@@H](O)C2O)c(=O)n1 (some centres not stated)"
  Potency: "inactive"
- Compound: "Cc1nc(Nc2ncc(C(=O)Nc3c(C)cccc3Cl)s2)cc(N2CCN(CCO)CC2)n1"
  Potency: "4.18 µM (active)"
- Compound: "CN(C)c1ccc(O)c2c1C[C@H]1C[C@H]3[C@H](N(C)C)C(=O)C(C(N)=O)=C(O)[C@@]3(O)C(=O)C1=C2O"
  Potency: "11.8 µM (active)"
- Compound: "C[C@]12CCC(=O)C=C1CC[C@@H]1[C@H]2[C@@H](O)C[C@@]2(C)[C@H]1CC[C@]2(O)C(=O)CO"
  Potency: "inactive"
- Compound: "O=C1c2c(O)cc(O)cc2OC(c2ccc(O)c(O)c2)C1O (configuration not stated)"
  Potency: "inactive"
- Compound: "CCOc1cc(CC(=O)N[C@@H](CC(C)C)c2ccccc2N2CCCCC2)ccc1C(=O)O"
  Potency: "inactive"
- Compound: "Nc1ncn([C@H]2C[C@H](O)[C@@H](CO)O2)c(=O)n1"
  Potency: "inactive"
- Compound: "COc1cc(C(C)=O)ccc1OCCCN1CCC(c2noc3cc(F)ccc23)CC1"
  Potency: "inactive"
- Compound: "Cc1ccc(NC(=O)c2ccc(CN3CCN(C)CC3)cc2)cc1Nc1nccc(-c2cccnc2)n1"
  Potency: "inactive"
- Compound: "Oc1ccc(-c2nc(-c3ccc(F)cc3)c(-c3ccncc3)[nH]2)cc1"
  Potency: "5.26 µM (active)"
- Compound: "O=C(NCC1CCCCN1)c1cc(OCC(F)(F)F)ccc1OCC(F)(F)F (configuration not stated)"
  Potency: "inactive"

----------
Experiment: Cytotoxicity counterscreen for NFkB agonists and antagonists (AID 624476);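 note: cells exposed to compound for 48 hours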
Conditions: NFkB reporter cell line viability counterscreen; series mostly up to 46.1 µM
Results filed as inconclusive are left out. Calls of active or inactive are those of the source. Calls follow the shape of the dose curve; as a rule, active = well fitted curve in the direction sought with a large enough effect; inconclusive = small, poorly fitted or top-dose-only effect, or another doubt; inactive = no such curve, though single readings can be large or run the other way.
Outcomes: active, inactive

- Compound: "Cc1ccc(Nc2nccc(N(C)c3ccc4c(C)n(C)nc4c3)n2)cc1S(N)(=O)=O"
  Assigned Class: "inactive"
- Compound: "Cc1cccc(C#Cc2ccccc2)n1"
  Assigned Class: "inactive"
- Compound: "CCN(CCO)CCCC(C)Nc1ccnc2cc(Cl)ccc12 (stereo not given)"
  Assigned Class: "inactive"
- Compound: "Cc1ccc(NC(=O)c2ccc(CN3CCN(C)CC3)cc2)cc1Nc1nccc(-c2cccnc2)n1"
  Assigned Class: "inactive"
- Compound: "CCOC(=O)C1=C(O)C(=O)N(Cc2ccccc2)C1"
  Assigned Class: "inactive"
- Compound: "Nc1cccc2c1CN(C1CCC(=O)NC1=O)C2=O (stereo not given)"
  Assigned Class: "inactive"
- Compound: "Cc1cccc(-c2[nH]ncc2-c2ccc3ncccc3n2)n1"
  Assigned Class: "inactive"
- Compound: "CC(C)c1ccc2c(c1)c(SC(C)(C)C)c(CC(C)(C)C(=O)O)n2Cc1ccc(Cl)cc1"
  Assigned Class: "active"
- Compound: "CC(C)C[C@H](NC(=O)[C@H](Cc1ccccc1)NC(=O)c1cnccn1)B(O)O"
  Assigned Class: "active"
- Compound: "Nc1nc(Cl)nc2c1ncn2[C@H]1C[C@H](O)[C@@H](CO)O1"
  Assigned Class: "active"
